TESTED_ON: Induced myeloid leukemia cell differentiation protein Mcl-1 (Homo sapiens)
Sequence (Q07820 whole entry): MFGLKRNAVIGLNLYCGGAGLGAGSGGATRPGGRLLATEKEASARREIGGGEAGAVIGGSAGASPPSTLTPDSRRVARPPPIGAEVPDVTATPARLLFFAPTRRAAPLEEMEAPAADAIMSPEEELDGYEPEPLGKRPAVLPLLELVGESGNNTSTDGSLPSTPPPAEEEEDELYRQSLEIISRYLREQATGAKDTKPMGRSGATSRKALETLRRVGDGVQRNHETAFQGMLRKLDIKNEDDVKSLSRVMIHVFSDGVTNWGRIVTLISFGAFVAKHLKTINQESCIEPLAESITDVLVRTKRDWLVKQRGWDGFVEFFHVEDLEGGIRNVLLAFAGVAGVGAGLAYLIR
Record form. Attribute: pKi. Fill in for each entry.
One number for each entry, as −log10 of the molar value.

COMPOUND: Cc1cc(OCCCc2c3n(c4c(-c5c(C)nn(C)c5C)c(Cl)ccc24)[C@H](C)CN(Cc2cccc(C(=O)O)c2)C3=O)cc(C)c1Cl
OBSERVABLE: pKi
MEAS_VALUE: 7.59

### Prompt Query for Induced myeloid leukemia cell differentiation protein Mcl-1 (Homo sapiens): what pKi does the record show for Cc1cc(OCCCc2c3n(c4c(-c5c(C)nn(C)c5C)c(Cl)ccc24)CC(C)CN(Cc2ccc(C(=O)O)cc2)C3=O)cc(C)c1Cl (centres undefined) ?
### Response 7.66

###

Induced myeloid leukemia cell differentiation protein Mcl-1 (Homo sapiens) Ki data
Answers are plain numbers, in pM.

Some solved cases for reference:
SMILES_RECORD: Cc1cc(OCCCc2c3n(c4c(-c5c(C)nn(C)c5C)c(Cl)ccc24)[C@H](C)CN(c2cccc4c(C(=O)O)cccc24)C3=O)cc(C)c1Cl
TESTED_ON: Induced myeloid leukemia cell differentiation protein Mcl-1 (Homo sapiens)
Ki / pM: 330
--
SMILES_RECORD: Cc1cc(OCCCc2c3n(c4c(-c5c(C)nn(C)c5C)c(Cl)ccc24)[C@H](C)CN(c2cc(C(=O)O)cc4c2ccn4C)C3=O)cc(C)c1Cl
TESTED_ON: Induced myeloid leukemia cell differentiation protein Mcl-1 (Homo sapiens)
Ki / pM: 1300
--
SMILES_RECORD: Cc1cc(OCCCc2c3n(c4c(-c5c(C)nn(C)c5C)c(Cl)ccc24)[C@H](C)CN(c2cc(C(=O)O)c4ccn(C)c4c2)C3=O)cc(C)c1Cl
TESTED_ON: Induced myeloid leukemia cell differentiation protein Mcl-1 (Homo sapiens)
Ki / pM: 210
--
SMILES_RECORD: Cc1cc(OCCCc2c3n(c4c(-c5c(C)nn(C)c5C)c(Cl)ccc24)[C@H](C)CN(c2cn(C)c4cc(C(=O)O)ccc24)C3=O)cc(C)c1Cl
TESTED_ON: Induced myeloid leukemia cell differentiation protein Mcl-1 (Homo sapiens)
Ki / pM: 81
--
SMILES_RECORD: Cc1cc(OCCCc2c3n(c4c(-c5c(C)nn(C)c5C)c(Cl)ccc24)[C@H](C)CN(c2ccc(C(=O)O)cc2)C3=O)cc(C)c1Cl
TESTED_ON: Induced myeloid leukemia cell differentiation protein Mcl-1 (Homo sapiens)
Ki / pM: 1300

Would you mind listing Ki for each of the following compounds?
1. Cc1cc(OCCCc2c3n(c4c(-c5c(C)nn(C)c5C)c(Cl)ccc24)[C@H](C)CN(c2cc(C(=O)O)cc4c2OCO4)C3=O)cc(C)c1Cl
2. Cc1cc(OCCCc2c3n(c4c(-c5c(C)nn(C)c5C)c(Cl)ccc24)[C@H](C)CN(c2cccc(C(=O)O)c2)C3=O)cc(C)c1Cl

### Response
420
1400

###

Induced myeloid leukemia cell differentiation protein Mcl-1 (Homo sapiens) log10 of Ki data
Kindly note that the scale is log10 and the underlying Ki is in nM.

Some solved cases for reference:
MOLECULE: Cc1cc(OCCCc2c3n(c4c(-c5c(C)nn(C)c5C)c(Cl)ccc24)[C@@H](C)CN(Cc2ccc(C(=O)O)cc2)C3=O)cc(C)c1Cl
log10 of Ki: 1.54
--
MOLECULE: Cc1cc(OCCCc2c3n(c4c(-c5c(C)nn(C)c5C)c(Cl)ccc24)C[C@@H](C)N(Cc2ccc(C(=O)O)o2)C3=O)cc(C)c1Cl
log10 of Ki: 0.77
--
MOLECULE: Cc1cc(OCCCc2c3n(c4c(-c5c(C)nn(C)c5C)c(Cl)ccc24)CCN(Cc2ccc(C(=O)O)o2)C3=O)cc(C)c1Cl
log10 of Ki: 0.76

Would you mind listing log10 of Ki for each of the following molecules?
1. Cc1cc(OCCCc2c3n(c4c(-c5c(C)nn(C)c5C)c(Cl)ccc24)CCC(C)N(Cc2cccc(C(=O)O)c2)C3=O)cc(C)c1Cl (stereo not drawn)
2. Cc1cc(OCCCc2c3n(c4c(-c5c(C)nn(C)c5C)c(Cl)ccc24)C[C@H](C)N(Cc2cccc(C(=O)O)c2)C3=O)cc(C)c1Cl
3. Cc1cc(OCCCc2c3n(c4c(-c5c(C)nn(C)c5C)c(Cl)ccc24)C[C@H](C)NC3=O)cc(C)c1Cl
4. Cc1cc(OCCCc2c3n(c4c(-c5c(C)nn(C)c5C)c(Cl)ccc24)C[C@H](C)N(Cc2ccc(C(=O)O)o2)C3=O)cc(C)c1Cl
5. Cc1cc(OCCCc2c3n(c4c(-c5c(C)nn(C)c5C)c(Cl)ccc24)[C@H](C)CN(Cc2ccc(C(=O)O)cc2)C3=O)cc(C)c1Cl
6. Cc1cc(OCCCc2c3n(c4c(-c5c(C)nn(C)c5C)c(Cl)ccc24)[C@@H](C)CN(Cc2cccc(C(=O)O)c2)C3=O)cc(C)c1Cl
7. Cc1cc(OCCCc2c3n(c4c(-c5c(C)nn(C)c5C)c(Cl)ccc24)CCC(C)NC3=O)cc(C)c1Cl (stereo not drawn)

### Response
1. 1.08
2. 1.00
3. 1.86
4. 0.94
5. -0.11
6. 1.57
7. 1.85

###

Record form. Attribute: pKi. Fill in for each entry.
TESTED_ON: Induced myeloid leukemia cell differentiation protein Mcl-1 (Homo sapiens)
One number for each entry, as −log10 of the molar value.

Some solved cases for reference:
COMPOUND: Cc1cc(OCCCc2c3n(c4c(-c5c(C)nn(C)c5C)c(Cl)ccc24)[C@@H](C)CN(Cc2ccc(C(=O)O)o2)C3=O)cc(C)c1Cl
pKi: 6.71
//
COMPOUND: Cc1cc(OCCCc2c3n(c4c(-c5c(C)nn(C)c5C)c(Cl)ccc24)C[C@@H](C)N(Cc2ccc(C(=O)O)o2)C3=O)cc(C)c1Cl
pKi: 7.41
//
COMPOUND: Cc1cc(OCCCc2c3n(c4c(-c5c(C)nn(C)c5C)c(Cl)ccc24)CC(C)CN(Cc2ccc(C(=O)O)o2)C3=O)cc(C)c1Cl (configuration not stated)
pKi: 7.09

Would you mind listing pKi for each of the following compounds?
1. Cc1cc(OCCCc2c3n(c4c(-c5c(C)nn(C)c5C)c(Cl)ccc24)[C@H](C)CN(Cc2ccc(C(=O)O)o2)C3=O)cc(C)c1Cl
2. Cc1cc(OCCCc2c3n(c4c(-c5c(C)nn(C)c5C)c(Cl)ccc24)C[C@H](C)N(Cc2cccc(C(=O)O)c2)C3=O)cc(C)c1Cl
3. Cc1cc(OCCCc2c3n(c4c(-c5c(C)nn(C)c5C)c(Cl)ccc24)C[C@H](C)NC3=O)cc(C)c1Cl
4. Cc1cc(OCCCc2c3n(c4c(-c5c(C)nn(C)c5C)c(Cl)ccc24)CCN(Cc2ccc(C(=O)O)o2)C3=O)cc(C)c1Cl

### Response
1: 7.59; 2: 7.01; 3: 6.84; 4: 6.86

###

Apoptosis regulator Bcl-2 (Homo sapiens) Ki data
Sequence (P10415 whole entry): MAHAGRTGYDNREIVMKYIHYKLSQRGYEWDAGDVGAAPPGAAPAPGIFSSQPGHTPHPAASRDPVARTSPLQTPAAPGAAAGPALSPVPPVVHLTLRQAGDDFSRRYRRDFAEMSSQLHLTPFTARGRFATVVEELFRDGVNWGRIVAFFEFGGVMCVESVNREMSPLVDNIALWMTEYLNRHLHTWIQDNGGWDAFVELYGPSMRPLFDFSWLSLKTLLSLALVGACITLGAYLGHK
Give bare numbers, in µM.

SMILES_RECORD: Cc1cc(OCCCc2c3n(c4c(-c5c(C)nn(C)c5C)c(Cl)ccc24)[C@H](C)CN(c2cccc4c(C(=O)O)cccc24)C3=O)cc(C)c1Cl
MEAS_VALUE: 0.38
//
SMILES_RECORD: Cc1cc(OCCCc2c3n(c4c(-c5c(C)nn(C)c5C)c(Cl)ccc24)[C@H](C)CN(c2cc(C(=O)O)cc4c2OCO4)C3=O)cc(C)c1Cl
MEAS_VALUE: 0.63

Turning to the following compound.
### Prompt Quick one: Ki for Cc1cc(OCCCc2c3n(c4c(-c5c(C)nn(C)c5C)c(Cl)ccc24)[C@H](C)CN(c2cn(C)c4cc(C(=O)O)ccc24)C3=O)cc(C)c1Cl ?
### Response 0.5

###

pKi: −log10 of the molar value.
Bcl-2-like protein 1 (Homo sapiens, UniProt Q07817) pKi data
Sequence (Q07817 whole entry): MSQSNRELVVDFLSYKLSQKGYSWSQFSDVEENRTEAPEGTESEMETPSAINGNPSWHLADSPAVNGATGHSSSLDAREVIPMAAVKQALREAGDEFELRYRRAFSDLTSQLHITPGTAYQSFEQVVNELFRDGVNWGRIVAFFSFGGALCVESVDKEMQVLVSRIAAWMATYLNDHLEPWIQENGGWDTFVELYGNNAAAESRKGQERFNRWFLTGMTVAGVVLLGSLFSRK

Some solved cases for reference:
SMILES_RECORD: Cc1cc(OCCCc2c3n(c4c(-c5c(C)nn(C)c5C)c(Cl)ccc24)[C@H](C)CN(c2ccc(C(=O)O)cc2)C3=O)cc(C)c1Cl
TESTED_ON: Bcl-2-like protein 1 (Homo sapiens, UniProt Q07817)
pKi: < 4.40
--
SMILES_RECORD: Cc1cc(OCCCc2c3n(c4c(-c5c(C)nn(C)c5C)c(Cl)ccc24)[C@H](C)CN(c2cc(C(=O)O)cc4c2OCO4)C3=O)cc(C)c1Cl
TESTED_ON: Bcl-2-like protein 1 (Homo sapiens, UniProt Q07817)
pKi: 4.60

Turning to the following molecule.
### Prompt Quick one: pKi for Cc1cc(OCCCc2c3n(c4c(-c5c(C)nn(C)c5C)c(Cl)ccc24)[C@H](C)CN(c2cc(C(=O)O)cc4c2ccn4C)C3=O)cc(C)c1Cl ?
### Response < 4.40

###

TESTED_ON: Induced myeloid leukemia cell differentiation protein Mcl-1 (Homo sapiens)
Record form. Attribute: pKi. Fill in for each entry.
Numbers only, as −log10 of the molar value.

SMILES_RECORD: Cc1cc(OCCCc2c3n(c4c(-c5c(C)nn(C)c5C)c(Cl)ccc24)[C@H](C)CN(c2cc(C(=O)O)c4ccn(C)c4c2)C3=O)cc(C)c1Cl
pKi: 8.82
//
SMILES_RECORD: Cc1cc(OCCCc2c3n(c4c(-c5c(C)nn(C)c5C)c(Cl)ccc24)[C@H](C)CN(c2ccc(C(=O)O)cc2)C3=O)cc(C)c1Cl
pKi: 8.35
//
SMILES_RECORD: Cc1cc(OCCCc2c3n(c4c(-c5c(C)nn(C)c5C)c(Cl)ccc24)[C@H](C)CN(c2cccc(C(=O)O)c2)C3=O)cc(C)c1Cl
pKi: 8.59
//
SMILES_RECORD: Cc1cc(OCCCc2c3n(c4c(-c5c(C)nn(C)c5C)c(Cl)ccc24)[C@H](C)CN(c2cccc4c(C(=O)O)cccc24)C3=O)cc(C)c1Cl
pKi: 9.11

Would you mind listing pKi for each of the following compounds?
1. Cc1cc(OCCCc2c3n(c4c(-c5c(C)nn(C)c5C)c(Cl)ccc24)[C@H](C)CN(c2cc(C(=O)O)cc4c2OCO4)C3=O)cc(C)c1Cl
2. Cc1cc(OCCCc2c3n(c4c(-c5c(C)nn(C)c5C)c(Cl)ccc24)[C@H](C)CN(c2cn(C)c4cc(C(=O)O)ccc24)C3=O)cc(C)c1Cl
3. Cc1cc(OCCCc2c3n(c4c(-c5c(C)nn(C)c5C)c(Cl)ccc24)[C@H](C)CN(c2cc(C(=O)O)cc4c2ccn4C)C3=O)cc(C)c1Cl

### Response
1. 8.85
2. 9.42
3. 8.17

Cited source for all entries: ChEMBL document CHEMBL4385603
